# systemTested: XIAP-Caspase-9 in HEK293-XIAP-Caspase-9 cells (Homo sapiens)
# Construct: FLAG
# methodDescription: HEK293-XIAP-Caspase-9 immunoprecipitation (IP) MSD assay
# assayConditions: compound 2 h at 37° C.; read-out: HEK293-X-C9 IP
Where a name gives a salt, the structure may show the parent alone.
reportedMetric: EC50 (nM)
Give just the number in nM; leave the unit off.

Ask | Look up and state reported EC50 for C[C@@H]1CN(CC(=O)N2CC(C)(C)c3nc(C(O)CO)c(Cc4ccc(F)cc4)cc32)[C@@H](CN2CCOC[C@H]2C)CN1 (single isomer, unassigned) [Example 14, dihydrochloride]
Reply | 13

Ask | Look up and state reported EC50 for C[C@@H]1CN(CC(=O)N2CC(C)(C)c3cc(=O)n(Cc4ccc(F)cc4)cc32)[C@@H](CN2CCOC[C@H]2C)CN1 [Example 17, dihydrochloride]
Reply | 28

Ask | Look up and state reported EC50 for C[C@@H]1CN(CC(=O)N2CC(C)(C)c3c2cc(Cc2ccc(F)cc2F)c(=O)n3C)[C@@H](CN2C[C@H](C)OC[C@H]2C)CN1 [Example 25, dihydrochloride]
Reply | 2.7

Ask | Look up and state reported EC50 for C[C@@H]1CN(CC(=O)N2CC(C)(C)c3nc(CO)c(Cc4ccccc4F)cc32)[C@@H](CN2CCOC[C@H]2C)CN1 [Example 4, dihydrochloride]
Reply | 2.6

Ask | Look up and state reported EC50 for CCCCc1cc2c(n(C)c1=O)C(C)(C)CN2C(=O)CN1C[C@@H](C)NC[C@@H]1CN1[C@H](C)COC[C@H]1C [Example 33, dihydrochloride]
Reply | 2.4

###

# systemTested: XIAP-Caspase-9 in HEK293-XIAP-Caspase-9 cells (Homo sapiens)
# Construct: FLAG; expressed in transfected cells
# methodDescription: HEK293-XIAP-Caspase-9 immunoprecipitation (IP) MSD assay
# Type: cell-based
# assayConditions: compound 2 h at 37° C.; read-out: HEK293-X-C9 IP
Structures can show the parent of a compound that is named as a salt.
Could you please report measured pEC50 for the items listed next?
Scale note: pEC50 = -log10(concentration in M).

Ask | Look up and state reported pEC50 for COCC(O)c1nc2c(cc1Cc1ccc(F)cc1)N(C(=O)CN1C[C@@H](C)NC[C@@H]1CN1CCOC[C@H]1C)CC2(C)C (single isomer, unassigned) [Example 28, trihydrochloride]
Reply | 8.36

Ask | Look up and state reported pEC50 for C[C@@H]1CN(CC(=O)N2CC(C)(C)c3c2cc(Cc2ccc(F)cc2F)c(=O)n3C)[C@@H](CN2[C@H](C)COC[C@H]2C)CN1 [Example 12, dihydrochloride]
Reply | 9.16

Ask | Look up and state reported pEC50 for COC(CO)c1nc2c(cc1Cc1ccc(F)cc1)N(C(=O)CN1C[C@@H](C)NC[C@@H]1CN1CCOC[C@H]1C)CC2(C)C (single isomer, unassigned) [Example 29]
Reply | 7.89

Ask | Look up and state reported pEC50 for C[C@@H]1CN(CC(=O)N2CC(C)(C)c3cc(=O)n(Cc4ccc(F)cc4F)cc32)[C@@H](CN2[C@H](C)COC[C@H]2C)CN1 [Example 20, dihydrochloride]
Reply | 8.20

Ask | Look up and state reported pEC50 for C[C@@H]1CN(CC(=O)N2CC(C)(C)c3c2cc(Cc2ccc(F)cc2)c(=O)n3C)[C@@H](CN2C[C@H](C)OC[C@H]2C)CN1 [Example 18, trihydrochloride]
Reply | 8.92

Ask | Look up and state reported pEC50 for C[C@@H]1CN(CC(=O)N2CC(C)(C)c3[nH]c(=O)c(Cc4ccc(F)cc4)cc32)[C@@H](CN2CCOC[C@H]2C)CN1 [Example 5, dihydrochloride]
Reply | 8.28

Ask | Look up and state reported pEC50 for C[C@@H]1CN(CC(=O)N2CC(C)(C)c3nc(CO)c(Cc4cccc(F)c4)cc32)[C@@H](CN2CCOC[C@H]2C)CN1 [Example 15, dihydrochloride]
Reply | 8.31

Ask | Look up and state reported pEC50 for C[C@@H]1CN(CC(=O)N2CC(C)(C)c3c2cc(Cc2ccc(F)cc2F)c(=O)n3N)[C@@H](CN2CCOC[C@H]2C)CN1.Cl.Cl [Example 23, dihydrochloride]
Reply | 9.11

###

# systemTested: XIAP-Caspase-9 in HEK293-XIAP-Caspase-9 cells (Homo sapiens, UniProt P98170)
# Construct: FLAG
# Sequence (P98170 whole entry): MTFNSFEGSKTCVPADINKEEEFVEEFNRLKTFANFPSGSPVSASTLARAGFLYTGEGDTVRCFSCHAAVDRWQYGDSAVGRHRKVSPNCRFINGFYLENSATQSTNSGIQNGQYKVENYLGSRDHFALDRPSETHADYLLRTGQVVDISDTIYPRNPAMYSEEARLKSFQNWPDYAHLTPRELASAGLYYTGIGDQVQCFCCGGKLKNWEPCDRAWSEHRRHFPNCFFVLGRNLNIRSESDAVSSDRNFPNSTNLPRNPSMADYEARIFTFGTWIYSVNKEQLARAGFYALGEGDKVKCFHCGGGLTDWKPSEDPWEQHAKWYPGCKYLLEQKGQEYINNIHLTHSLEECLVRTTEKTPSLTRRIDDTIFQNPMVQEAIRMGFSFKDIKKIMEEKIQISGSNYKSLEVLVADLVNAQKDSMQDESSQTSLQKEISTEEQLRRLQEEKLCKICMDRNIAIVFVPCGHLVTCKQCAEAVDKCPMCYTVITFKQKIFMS
# methodDescription: HEK293-XIAP-Caspase-9 immunoprecipitation (IP) MSD assay
# assayConditions: compound 2 h at 37° C.; read-out: HEK293-X-C9 IP
Where a name gives a salt, the structure may show the parent alone.
reportedMetric: pEC50
Scale note: pEC50 = -log10(concentration in M).

Ask | Output reported pEC50 of the compound C[C@@H]1CN(CC(=O)N2CC(C)(C)c3c2cc(Cc2ccccc2F)c(=O)n3C)[C@@H](CN2CCOC[C@H]2C)CN1 [Example 9, dihydrochloride] on XIAP-Caspase-9 in HEK293-XIAP-Caspase-9 cells (Homo sapiens, UniProt P98170).
Reply | 8.52

Ask | Output reported pEC50 of the compound CCCCn1cc2c(cc1=O)C(C)(C)CN2C(=O)CN1C[C@@H](C)NC[C@@H]1CN1[C@H](C)COC[C@H]1C [Example 35, dihydrochloride] on XIAP-Caspase-9 in HEK293-XIAP-Caspase-9 cells (Homo sapiens, UniProt P98170).
Reply | 7.89

Ask | Output reported pEC50 of the compound COCC(O)c1nc2c(cc1Cc1ccc(F)cc1)N(C(=O)CN1C[C@@H](C)NC[C@@H]1CN1CCOC[C@H]1C)CC2(C)C (single isomer, unassigned) [Example 26, trihydrochloride] on XIAP-Caspase-9 in HEK293-XIAP-Caspase-9 cells (Homo sapiens, UniProt P98170).
Reply | 7.92

All values here come from patent US12202828B2.
